Please go through the items and note down their MIC.
# Test system: Candida albicans
# measurement.notes: Antifungal activity against Candida albicans ATCC 10231 after 48 to72 hrs by twofold serial dilution method
# Type: functional

QUERY: If you can, please state the reported MIC value of COC(=O)c1coc(/C=C/CCC(C)C(CC(OC)C(C)CCC(=O)C(C)C(C/C=C/N(C)C=O)OC)OC(=O)CC(O)C/C=C/C(=O)C(C)C(OC)c2coc(C(N)=O)n2)n1 (stereo unspecified) [HALISHIGAMIDE D] .
RESULT: > 100 µg/mL

QUERY: And what about the molecule COC(CC1OC(=O)CC(O)/C=C/CC(=O)C(C)C(OC)c2coc(n2)-c2coc(n2)-c2coc(n2)/C=C/CCC1C)C(C)CCC(=O)C(C)C(C/C=C/N(C)C=O)OC (stereo unspecified) [NEOHALICHONDRAMIDE] ?
RESULT: > 100 µg/mL

QUERY: Proceed to COC(CC1OC(=O)CC(O)CC(O)CC(=O)C(C)C(OC)c2coc(n2)-c2coc(n2)-c2coc(n2)/C=C/CCC1C)C(C)CCC(=O)C(C)C(C/C=C/N(C)C=O)OC (stereo unspecified) [JASPISAMIDE A]
RESULT: > 100 µg/mL

QUERY: What do we get for COC(CC1OC(=O)CC(O)C/C=C/C(=O)C(C)C(OC)c2coc(n2)-c2coc(n2)-c2coc(n2)/C=C/CCC1C)C(C)CCC(=O)C(C)C(C/C=C/N(C)C=O)OC (stereo unspecified) [HALICHONDRAMIDE] ?
RESULT: 0.23 µM

QUERY: Next molecule: COC(CC1OC(=O)CC(O)C/C=C\C(=O)C(C)C(OC)c2coc(n2)-c2coc(n2)-c2coc(n2)/C=C\CCC1C)C(C)CCC(=O)C(C)C(C/C=C/N(C)C=O)OC (stereo unspecified)
RESULT: 0.91 µM

QUERY: Same question, `C[C@@H]1[C@H](O)[C@@H](C)/C=C/C=C/C=C/C=C/C=C/C=C/C=C/[C@H](O[C@@H]2O[C@H](C)[C@@H](O)[C@H](N)[C@@H]2O)C[C@@H]2O[C@](O)(C[C@@H](O)C[C@@H](O)[C@H](O)CC[C@@H](O)C[C@@H](O)CC(=O)O[C@H]1C)C[C@H](O)[C@H]2C(=O)O` this time
RESULT: 0.22 µM

* * *

# Test system: Aspergillus fumigatus
# measurement.notes: Antifungal activity against Aspergillus fumigatus HIC 6094 after 48 to72 hrs by twofold serial dilution method
# Format: functional
measured.metric: MIC (µM)
Note: unit µM is implicit; provide only the numeric part.

QUERY: // lookup MIC for COC(CC1OC(=O)CC(O)C/C=C/C(=O)C(C)C(OC)c2coc(n2)-c2coc(n2)-c2coc(n2)/C=C/CCC1C)C(C)CCC(=O)C(C)C(C/C=C/N(C)C=O)OC (centres undefined) [HALICHONDRAMIDE]
RESULT: 0.45

QUERY: Repeat for the following compound: COC(CC1OC(=O)CC(O)C/C=C\C(=O)C(C)C(OC)c2coc(n2)-c2coc(n2)-c2coc(n2)/C=C\CCC1C)C(C)CCC(=O)C(C)C(C/C=C/N(C)C=O)OC (centres undefined)
RESULT: 14.6

* * *

# Test system: Aspergillus fumigatus
# measurement.notes: Antifungal activity against Aspergillus fumigatus HIC 6094 after 48 to72 hrs by twofold serial dilution method
# Assay type: functional
measured.metric: MIC (µM)
Hi! Could you send only the number? It should be in µM, unit omitted.

QUERY: Hello, I am looking for reported MIC with Aspergillus fumigatus for `C[C@@H]1[C@H](O)[C@@H](C)/C=C/C=C/C=C/C=C/C=C/C=C/C=C/[C@H](O[C@@H]2O[C@H](C)[C@@H](O)[C@H](N)[C@@H]2O)C[C@@H]2O[C@](O)(C[C@@H](O)C[C@@H](O)[C@H](O)CC[C@@H](O)C[C@@H](O)CC(=O)O[C@H]1C)C[C@H](O)[C@H]2C(=O)O` . Could you help?
RESULT: 0.84
